Target: T1, Recombinant cynomolgus IL-18 (cynomolgus monkey, UniProt Q14116 37-193 (human entry))
T1 chain: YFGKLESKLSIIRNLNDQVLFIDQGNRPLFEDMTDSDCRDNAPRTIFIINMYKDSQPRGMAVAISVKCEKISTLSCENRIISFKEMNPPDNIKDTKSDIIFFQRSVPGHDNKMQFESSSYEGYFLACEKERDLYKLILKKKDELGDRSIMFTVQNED
Test: cell-based or functional assay
REPORTED_PROPERTY: IC50, inhibition of IFN-γ release, KG-1 cells, Cyno IL-18 (nM)

BINDER	VALUE_REPORTED
MOR09466 (antibody, human IgG1, lambda, L234A L235A, V domains shown, also called MOR9466) VH: EVQLVQSGAEVKKPGSSVKVSCKASGGTFNSYAISWVRQAPGQGLEWMGNIIPYSGFAYYAQKFQGRVTITADESTSTAYMELSSLRSEDTAVYYCARAAYHPLVFDNWGQGTLVTVSS VL: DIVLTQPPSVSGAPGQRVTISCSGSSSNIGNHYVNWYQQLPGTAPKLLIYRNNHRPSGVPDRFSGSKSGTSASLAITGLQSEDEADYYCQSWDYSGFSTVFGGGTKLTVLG	5.6
MOR10579 (antibody, human IgG1, lambda, L234A L235A, V domains shown) VH: EVQLVQSGAEVKKPGSSVKVSCKASGGTFNSYAISWVRQAPGQGLEWMGWINPFYIGETFYAQKFQGRVTITADESTSTAYMELSSLRSEDTAVYYCARAAYHPLVFDNWGQGTLVTVSS VL: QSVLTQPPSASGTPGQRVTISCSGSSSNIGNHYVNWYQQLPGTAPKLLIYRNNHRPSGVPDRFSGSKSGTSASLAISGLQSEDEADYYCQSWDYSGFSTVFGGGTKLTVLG	9.8
MOR09464 (antibody, human IgG1, lambda, L234A L235A, V domains shown, also called MOR9464) VH: EVQLVQSGAEVKKPGSSVKVSCKASGGTFNSYAISWVRQAPGQGLEWMGNIIPMTGQTYYAQKFQGRVTITADESTSTAYMELSSLRSEDTAVYYCARAAYHPLVFDNWGQGTLVTVSS VL: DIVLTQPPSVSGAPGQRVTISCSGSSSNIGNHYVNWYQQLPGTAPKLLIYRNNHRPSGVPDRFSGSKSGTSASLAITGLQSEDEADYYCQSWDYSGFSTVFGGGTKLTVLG	8.3

These entries and their values trace back to patent US20140112915A1.
